- Target or system: T1, EsCas13d, nuclease-dead (Eubacterium siraeum, UniProt B0MS50, R295A;H300A;R849A;H854A)
- T1 sequence: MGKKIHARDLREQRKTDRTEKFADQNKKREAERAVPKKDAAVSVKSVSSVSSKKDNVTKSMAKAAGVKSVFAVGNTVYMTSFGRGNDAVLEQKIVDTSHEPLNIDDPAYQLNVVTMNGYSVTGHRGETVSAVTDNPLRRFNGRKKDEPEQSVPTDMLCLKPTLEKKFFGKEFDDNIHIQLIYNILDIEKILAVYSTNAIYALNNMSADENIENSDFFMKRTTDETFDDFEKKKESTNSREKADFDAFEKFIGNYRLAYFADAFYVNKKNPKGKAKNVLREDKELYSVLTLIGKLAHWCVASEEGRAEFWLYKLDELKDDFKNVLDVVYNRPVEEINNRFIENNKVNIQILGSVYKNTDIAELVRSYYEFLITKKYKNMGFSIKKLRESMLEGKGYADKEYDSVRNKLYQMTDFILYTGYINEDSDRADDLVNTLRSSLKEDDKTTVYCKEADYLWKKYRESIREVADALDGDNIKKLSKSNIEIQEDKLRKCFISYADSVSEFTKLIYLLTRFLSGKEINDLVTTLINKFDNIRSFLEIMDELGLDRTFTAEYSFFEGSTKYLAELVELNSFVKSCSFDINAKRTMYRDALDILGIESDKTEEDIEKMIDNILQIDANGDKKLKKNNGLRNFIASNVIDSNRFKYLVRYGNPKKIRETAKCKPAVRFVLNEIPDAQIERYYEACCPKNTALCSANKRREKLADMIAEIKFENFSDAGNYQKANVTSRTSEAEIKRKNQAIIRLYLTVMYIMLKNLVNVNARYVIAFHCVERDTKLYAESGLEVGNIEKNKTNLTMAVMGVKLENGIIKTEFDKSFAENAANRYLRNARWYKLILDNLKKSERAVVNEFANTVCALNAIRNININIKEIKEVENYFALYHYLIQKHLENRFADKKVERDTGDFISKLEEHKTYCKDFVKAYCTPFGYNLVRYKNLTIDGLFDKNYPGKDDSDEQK
- Measurement protocol: crRNA (strand 1, pre-loaded); Mg2+; 40 mM Tris-HCl pH 7.5, 150 mM NaCl, 6 mM MgCl2, 1 mM DTT, 0.1% Tween-20, 0.2 mg/ml BSA; 25 C; 10 min per concentration, then washed
- Experimental parameters: tags: His6-TwinStrep-SUMO cleaved; N-terminal SNAP kept (SNAP-Surface 488); label: 3' end held by stalled T7 RNA polymerase
Value kind: Kd (nM)

[[record]]
binder = "target 2 MT 5'PFS UUA 3'PFS CGA (mixed) RNA 1: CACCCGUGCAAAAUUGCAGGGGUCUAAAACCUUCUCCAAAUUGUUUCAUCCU RNA 2: GGGAAUGGAUCCACAUCUACGAAUUCUUAAGGAUGAAACAAUUUGGAGAAGCGAAGAUCGGAAGAGCACACGU"
reported_result = 24

[[record]]
binder = "target 1 C7U,A20C (mixed) RNA 1: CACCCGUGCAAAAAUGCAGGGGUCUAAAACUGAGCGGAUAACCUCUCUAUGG RNA 2: GGGAAUGGAUCCACAUCUACGAAUUCGUACCCUAGAGAGGUUAUUCGCUCACCGAGAUCGGAAGAGCACACGU"
reported_result = 37

